Test system: Mus musculus
measurement_description: Toxicity in mouse assessed as tail bleeding time at 200 mg/kg, po after 90 mins
Type: organism-based
Design: dose 200 mg/kg, route oral
assay_context: in vivo, 1.5 h
Activity listing for selected compounds.

given_smiles	system	Activity (s)
C[C@@H]1O[C@@H](c2ccc([N+](=O)[O-])cc2)OC[C@H]1NC(=O)Cc1ccccc1	Mus musculus	117.2
O=C(Cc1ccccc1)N[C@H]1CO[C@H](c2ccc([N+](=O)[O-])cc2)OC1	Mus musculus	117.7
Cc1ccc([C@H]2OC[C@@H](NC(=O)Cc3ccccc3)[C@H](C)O2)cc1	Mus musculus	118.5
O=C(Cc1ccccc1)N[C@H]1CO[C@H](c2ccccc2)OC1	Mus musculus	118.9
Cc1ccc([C@@H]2OC[C@@H](NC(=O)c3ccccc3)[C@H](C)O2)cc1	Mus musculus	117.7
C[C@@H]1O[C@H](c2cccc([N+](=O)[O-])c2)OC[C@H]1NC(=O)Cc1ccccc1	Mus musculus	118.6
Cc1ccc([C@@H]2OC[C@@H](NC(=O)Cc3ccccc3)[C@@H](C)O2)cc1	Mus musculus	118.5
Cc1ccc([C@H]2OC[C@@H](NC(=O)c3ccccc3)[C@H](C)O2)cc1	Mus musculus	118.7
O=C(Cc1ccccc1)N[C@H]1CO[C@H](c2ccc(Cl)cc2)OC1	Mus musculus	118.4
